Every entry's value here was drawn from PubChem BioAssay (NCI).

Exercise: for every item that follows, state its recorded growth inhibition.
# assay overview: NCI Yeast Anticancer Drug Screen. Data for the mlh1 rad18 strain (AID 175)
# settings: S. cerevisiae mlh1 rad18 strain growth inhibition; at 5.0 µM (retest, dose inferred, filed as 0.5); active compounds read high
# Experimental: Growth inhibition of yeast strains with defined genetic alterations is measured as a screen for potential anti-cancer activity. Selected strains with alterations in DNA damage repair or cell cycle control were exposed to compounds and growth inhibition was measured relative to vehicle treated controls. The strain used in this assay is mlh1 rad18
About 79,000 compounds went through this panel and 15% of them were active in at least one assay; those are over-represented in the sample as a whole.
Answers are plain numbers, in %.

1. CCN(CC)c1ccc(NC(C(=O)c2ccc(Cl)cc2)c2ccc(Cl)cc2)cc1 (stereo unspecified) :: -2

Hi! Can you tell me growth inhibition for each of these molecules?
1. CCOC(=O)Nc1nc2ccc(SC#N)cc2s1
2. CCOC(=O)C1=C(C)NC(C)=C(C(=O)OCC)C1c1ccnc2ccccc12

Ans:
1. 9
2. 10

Hi! Can you tell me growth inhibition for each of these molecules?
1. CCc1ccc(C(=O)O)c2ccccc12
2. c1cc2ccc1C1NCCCN1CCN1CCCNC1c1ccc(cc1)C1NCCCN1CCN1CCCNC21 (stereo unspecified)
3. COc1ccc2c(c1)c1c(C)c3cnccc3c(C)c1n2CCCN

Ans:
1. -1
2. -28
3. 9

* * *

# assay overview: NCI Yeast Anticancer Drug Screen. Data for the bub3 strain (AID 167)
# settings: S. cerevisiae bub3 mutant strain, at 50.0 µM (retest, dose inferred, filed as 5.0), active compounds read high
Compounds without any hit were thinned out: in the full panel of roughly 79,000, 15% have a hit.
experimental readout: growth inhibition (%)
Answers are plain numbers, in %.

Here are 5 compounds together with their reported answers.
1. Cn1c(=S)c2[nH]c(SCc3ccncc3)nc2n(C)c1=O :: 2
2. O=C(Oc1c(Cl)c(Cl)c(Cl)c(Cl)c1Cl)c1ccc(Cl)cc1 :: 99
3. COc1cc2c(c(OC)c1OC)-c1ccc(SC)c(=O)cc1[C@@H](NC(=O)Oc1ccccc1)CC2 :: 8
4. O=[N+]([O-])c1ccc2c(c1)/C(=N/O)c1ccccc1-2 :: 29
5. Cc1ccccc1NC(=O)C(=O)C(C#N)c1c(Cl)cccc1Cl (stereo unspecified) :: 25

Hi! Can you tell me growth inhibition for each of these compounds?
1. CCOC1NC(=S)N(C2CCCCC2)C1(C)C (stereo unspecified)
2. COc1cc(NCCCCCCCC2CCCCN2)c2ncccc2c1 (stereo unspecified)
3. COc1c([N+](=O)[O-])cc(-c2ccccc2)cc1[N+](=O)[O-]

Ans:
-9
88
63

* * *

# assay overview: NCI Yeast Anticancer Drug Screen. Data for the rad50 strain (AID 155);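 note: 0% = growth of vehicle-only cultures of the same strain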
# settings: S. cerevisiae rad50 strain growth inhibition; at 50.0 µM; active compounds read high
# Procedure: Growth inhibition of yeast strains with defined genetic alterations is measured as a screen for potential anti-cancer activity. Selected strains with alterations in DNA damage repair or cell cycle control were exposed to compounds and growth inhibition was measured relative to vehicle treated controls. The strain used in this assay is rad50
This is part of a sample that, as a whole, favours compounds with a hit. Of some 79,000 tested, about 15% had one in any assay.
Please enter y where growth inhibition is greater than or equal to 60%, and n where it is lower.

Known results for compounds:
1) O=C1C=C(OCC=C(C(F)(F)F)C(F)(F)F)C(=O)c2ccccc21 :: n
2) O=C1c2ccccc2/C=C\C(c2ccccc2)=N/N1c1ccccc1Cl :: y
3) CCOP(=O)(OCC)OC1c2[nH]ccc2-c2cc(C(=O)OC)[nH]c2C1OC (stereo not given) :: n
4) Cc1ccc(SC2=C(N(C)C)C(=O)c3ccccc3C2=O)cc1 :: y
5) COc1ccc(-c2c(-c3ccccc3)c(C)nc3[nH]c(=S)[nH]c(=S)c23)cc1OC :: y
6) O=C(O)/C(Cl)=C(\Cl)C(=O)Nc1c(Cl)cccc1Cl :: n
7) CC1=C(C(=O)Nc2ccccc2)C(c2cccc3ccccc23)C(C(=O)Nc2ccccc2)=C(C)N1 :: y
8) Nc1nc(-c2ccc3c(c2)Sc2ccccc2O3)cs1 :: y

Q: In plain terms: is recorded growth inhibition at least 60% for CC(C)CN(CC(C)C)CN1C(=O)/C(=C/c2ccc([N+](=O)[O-])cc2)SC1=S ?
Ans: y

Q: In plain terms: is recorded growth inhibition at least 60% for CC(=O)Nc1ccc(-c2nnc(SCC(=O)Nc3cccc(Cl)c3)o2)cc1 ?
Ans: n

* * *

Exercise: for every item that follows, state its recorded growth inhibition.
# assay overview: NCI Yeast Anticancer Drug Screen. Data for the sgs1 mgt1 strain (AID 161);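 note: 0% = growth of cultures given vehicle only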
# settings: S. cerevisiae sgs1 mgt1 strain, at 50.0 µM, active compounds read high
Compounds without any hit were thinned out: in the full panel of roughly 79,000, 15% have a hit.
Numbers only, in %.

Here are 3 compounds together with their reported answers.
1) CCCOC(=O)C#CC(=O)OCCC :: 48.8
2) CN(C)C1=C(Cl)C(=O)c2ccccc2C1=O :: 44.9
3) O=Cc1ccc2c(c1)CC1(C2)Cc2ccc3c(c2C1)CCC3 (stereo not given) :: 87.6

Hi! Can you tell me growth inhibition for each of these compounds?
1. COC(=O)[C@@]12OC[C@]34[C@H]([C@@H](O)[C@@H]1O)[C@@]1(C)CC(=O)C(OC(=O)CC(=O)OC5=C(C)[C@@H]6C[C@H]7OC(=O)[C@H](OC(=O)/C=C(\C)C(C)C)[C@H]8[C@]9(C(=O)OC)OC[C@]78[C@H]([C@@H](O)[C@@H]9O)[C@@]6(C)CC5=O)=C(C)[C@@H]1C[C@H]3OC(=O)[C@H](OC(=O)/C=C(\C)C(C)C)[C@@H]24
2. CCCCCCCCCCN(CCCCCCCCCC)CC(O)c1cc(-c2ccccc2)nc2ccccc12 (stereo not given)
3. CCC(N)C(O)C(C)C (stereo not given)
4. COC(=O)NNc1c([N+](=O)[O-])cnn(-c2ccccc2)c1=O
5. CC(C)(C)CC(=O)O
6. CCCCN(CCCC)CC(=O)c1ccc2cc(Cl)c3ccccc3c2c1
7. CC1=C(C)C(=O)C2=C(OCCCO2)C1=O
8. CN(NC1OC(=O)c2ccccc21)c1ccc(C(F)(F)F)cc1[N+](=O)[O-] (stereo not given)

Ans:
[92.5, 38.8, 14.3, 14, 29.1, 95.8, -0.8, 55.1]

Hi! Can you tell me growth inhibition for each of these compounds?
1. CS(=O)(=O)OCCN(CCOS(C)(=O)=O)c1ccc(C=Nc2cc(Br)c(O)c(Br)c2)c(Cl)c1
2. Cc1cc(=O)c2cc(N=Cc3ccc([N+](=O)[O-])o3)ccc2o1
3. CC1=C(C(=O)NCc2ccccc2)C(c2ccccc2[N+](=O)[O-])C(C(=O)NCc2ccccc2)=C(C)N1
4. COC(=O)/C(C#N)=C1\NC(=O)CC(c2ccccc2)C1C#N (stereo not given)

Ans:
[82.5, 42.6, 81.4, 9.25]

Hi! Can you tell me growth inhibition for each of these compounds?
1. CN(C)C(=S)SN(C)C(=O)Nc1ccccc1
2. N#CCN1CCCCCc2ccccc21
3. COc1ccccc1NC(=O)Oc1ccc(C(C)(CCC(=O)O)c2ccc(OC(=O)Nc3ccccc3OC)cc2)cc1
4. O=C(Nc1cccnc1)c1ccc(CSc2ccc(Cl)cc2)o1
5. CCCCCCCCCCCC(=O)OCC1CO1 (stereo not given)

Ans:
1. 94
2. -3.15
3. 11.7
4. 93.8
5. 24.6

* * *

# assay overview: NCI Yeast Anticancer Drug Screen. Data for the mlh1 rad18 strain (AID 175)
# settings: S. cerevisiae mlh1 rad18 strain growth inhibition; at 50.0 µM (retest, dose inferred, filed as 5.0)
About 79,000 compounds went through this panel and 15% of them were active in at least one assay; those are over-represented in the sample as a whole. Activity calls are given as the source filed them. Rule as the data show it: active = growth inhibition above about 70%; inactive = the rest.
Choose the fitting class; nothing outside label 1 (active), label 0 (inactive) is accepted.

Known results for compounds:
1. O=S(=O)(Nc1ccccc1-c1ccc(Cl)cc1)c1ccccc1 :: label 0
2. COC(=O)c1cccc2c1C(=O)c1ccccc1-2 :: label 0
3. N#CC(/C=C/c1ccccc1)(NO)Nc1cccc(Cl)c1 (stereo unspecified) :: label 1
4. C\C=C/C=C/C=C/C(=O)O :: label 0
5. COc1cc(Br)c(CC(NC=O)c2ccc3c(c2)OCO3)cc1OC (stereo unspecified) :: label 1

Q: Each compound tested received a call. Report the one for C=CCCCN1C(=O)C2C3c4ccccc4C(C=O)(c4ccccc43)C2C1=O (stereo unspecified) .
Ans: label 0

* * *

# assay overview: NCI Yeast Anticancer Drug Screen. Data for the bub3 strain (AID 167)
# settings: S. cerevisiae bub3 mutant strain, at 50.0 µM
# Experimental: Growth inhibition of yeast strains with defined genetic alterations is measured as a screen for potential anti-cancer activity. Selected strains with alterations in DNA damage repair or cell cycle control were exposed to compounds and growth inhibition was measured relative to vehicle treated controls. The strain used in this assay is bub3
About 79,000 compounds went through this panel and 15% of them were active in at least one assay; those are over-represented in the sample as a whole. Active and inactive are the calls of the source. Rule as the data show it: active = growth inhibition above about 70%; inactive = the rest.
Choose the fitting class; nothing outside class 1 for active, class 0 for inactive is accepted.

1. CC/C(=C(\CC)c1ccc(O)c(CN(CCO)CCO)c1)c1ccc(O)cc1 :: class 0
2. CC(=O)OCC1CC2OC2CC1C (configuration not stated) :: class 1
3. C/C(=N/NC(=O)Nc1ccc(N=Nc2ccccc2)cc1)c1cccnc1 :: class 0
4. O=C(Nc1ccc(Cl)cc1)NS(=O)(=O)c1c(-c2ccccc2)oc2ccccc2c1=O :: class 1
5. CC(C)(C)c1cc(C(O)(C(F)(F)F)C(F)(F)F)c(Cl)c(C(O)(C(F)(F)F)C(F)(F)F)c1 :: class 1
6. COc1ccc2c(c1)c1c(C)c3cnccc3c(C)c1n2CCCN :: class 0
7. CC1=C(C(=O)Nc2ccccc2)C(c2cccc3ccccc23)C(C(=O)Nc2ccccc2)=C(C)N1 :: class 1
8. N#CC(C#N)=Cc1ccc(Oc2ccccc2)cc1 :: class 1
9. COC1=C2C[C@@H](C)C[C@@H](OC)[C@@H](O)[C@H](C)/C=C(\C)[C@@H](OC(N)=O)[C@H](OC)/C=C\C=C(/C)C(=O)NC(=CC1=O)C2=O :: class 1
10. SCCc1ccccn1 :: class 0

Q: Each compound tested received a call. Report the one for C=C(CN(C)C)C(=O)c1ccccc1[N+](=O)[O-] .
Ans: class 1

Q: Each compound tested received a call. Report the one for C=CCOCCC=O .
Ans: class 0

Q: Each compound tested received a call. Report the one for CC(C)[C@H](N)C(=O)NCCNC(=O)[C@@H](N)C(C)C .
Ans: class 0
